# Tested on: S. aureus UBMS 88-4 (Sensitive)
# experimental protocol: MIC, agar dilution
# Type: cell-based
# condition summary: S. aureus UBMS 88-4 (Sensitive)
measured quantity: MIC (µg/mL)

                                   compound  units_symbol  measured
0  CN(C)c1cc(NC(=O)c2c(F)c(F)c(F)c(F)c2F)c(O)c2c1CC1CC3C(N(C)C)C(O)=C(C(N)=O)C(=O)C3(O)C(O)=C1C2=O (stereo not drawn) [T]         µg/mL         4
1  CN(C)c1cc(NC(=O)CO)c(O)c2c1CC1CC3C(N(C)C)C(O)=C(C(N)=O)C(=O)C3(O)C(O)=C1C2=O (stereo not drawn) [L]         µg/mL         4
2  COC(=O)Nc1cc(N(C)C)c2c(c1O)C(=O)C1=C(O)[C@]3(O)C(=O)C(C(N)=O)=C(O)[C@@H](N(C)C)C3CC1C2 (stereo partly drawn) [HH]         µg/mL      0.03
3  CN(C)c1cc(NC(=O)CN)c(O)c2c1CC1CC3C(N(C)C)C(O)=C(C(N)=O)C(=O)C3(O)C(O)=C1C2=O.O=C(O)C(F)(F)F (stereo not drawn) [M]         µg/mL         1
4  CN(C)c1cc(NS(=O)(=O)c2ccc(Cl)cc2)c(O)c2c1CC1CC3C(N(C)C)C(O)=C(C(N)=O)C(=O)C3(O)C(O)=C1C2=O (stereo not drawn) [EE]         µg/mL      0.12
5  CN(C)c1cc(NC(=O)c2cccc(C(F)(F)F)c2)c(O)c2c1CC1CC3C(N(C)C)C(O)=C(C(N)=O)C(=O)C3(O)C(O)=C1C2=O (stereo not drawn) [U]         µg/mL       0.5

====

# System: E. coli UBMS 89-2 (Sensitive)
# experimental protocol: MIC, agar dilution
# Assay type: cell-based
# condition summary: E. coli UBMS 89-2 Tet Sens.; Table IA; unit assumed
Counter-ions that a name gives are not always drawn.
measured quantity: log10(Antibacterial activity (MIC)) (log10 of the value in µg/mL)

compound	measured
CN(C)CCCC(=O)Nc1cc(N(C)C)c2c(c1O)C(=O)C1=C(O)[C@]3(O)C(=O)C(C(N)=O)=C(O)[C@@H](N(C)C)C3CC1C2.Cl.Cl (stereo partly drawn)	1.20
CN(C)CC(=O)Nc1cc(N(C)C)c2c(c1O)C(=O)C1=C(O)[C@]3(O)C(=O)C(C(=O)NCN4CCOCC4)=C(O)[C@@H](N(C)C)C3CC1C2 (stereo partly drawn)	-0.60
CN(C)c1cc(NC(=O)CNC2CC2)c(O)c2c1CC1CC3C(N(C)C)C(O)=C(C(N)=O)C(=O)C3(O)C(O)=C1C2=O.Cl.Cl (stereo not drawn)	0.30
CN(C)c1cc(NC(=O)CN2CCCC2)c(O)c2c1CC1CC3[C@H](N(C)C)C(O)=C(C(N)=O)C(=O)[C@@]3(O)C(O)=C1C2=O (stereo partly drawn) [SS, dihydrochloride]	-0.60
CCN(CC)CC(=O)Nc1cc(N(C)C)c2c(c1O)C(=O)C1=C(O)[C@]3(O)C(=O)C(C(N)=O)=C(O)[C@@H](N(C)C)C3CC1C2.Cl.Cl (stereo partly drawn)	0.00
CCCCCNCC(=O)Nc1cc(N(C)C)c2c(c1O)C(=O)C1=C(O)C3(O)C(=O)C(C(N)=O)=C(O)C(N(C)C)C3CC1C2.Cl.Cl (stereo not drawn)	-0.30

Source of measurements: patent USRE40086E1
